procedure summary: chemical genetic growth profiling, strain panel (AID 1159580);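 note: tested at 20 µM; growth read once vehicle control cultures reached saturation at 30 °C; 1 = growth at the plate median or of vehicle wells; lower values mean less growth of the strain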
run parameters: S. cerevisiae deletion strains, growth OD, locus YAL030W, strain snc1
Screen size: about 5,500 compounds; about 2,000 (36%) were called active. Not shown: some 18% with an inconclusive outcome. Cut-off read from the data, not from the text of the source: active = normalized growth mostly below about 0.91 (no sharp cut-off); inconclusive = no clear call, values can overlap the other calls; inactive = mostly above about 0.92. The list shows a part of the results.
Select the matching outcome among active, inactive

### Prompt Answer briefly: the call reported for C[C@@H]1CC2C3CCC4=CC(=O)C=C[C@]4(C)[C@@]3(F)[C@@H](O)C[C@]2(C)[C@@]1(O)C(=O)COP(=O)(O)O (some centres undefined) in this assay.
### Response inactive

### Prompt Now consider S=c1[nH]c2ccccc2s1 .
### Response inactive

### Prompt Now consider CS(=O)(=O)OCCCCOS(C)(=O)=O .
### Response inactive

### Prompt Now consider COc1cc(C)c2c(c1C=O)Oc1c(c(C)c(O)c3c1C(O)OC3=O)OC2=O (centres undefined) .
### Response inactive

### Prompt Now consider CCCNC(C)C(=O)Nc1ccccc1C (centres undefined) .
### Response inactive

### Prompt Now consider c1ccc(-c2ccc(C(c3ccccc3)n3ccnc3)cc2)cc1 (centres undefined) .
### Response active

### Prompt Now consider O=C(NC(Cc1cc(=O)[nH]c2ccccc12)C(=O)O)c1ccc(Cl)cc1 (centres undefined) .
### Response inactive

### Prompt Now consider O=C(NC(=O)c1c(F)cccc1F)Nc1cc(Cl)c(OC(F)(F)C(F)C(F)(F)F)cc1Cl (centres undefined) .
### Response inactive

### Prompt Now consider COc1ccc2c(c1O)-c1c(OC)c(OC)cc3c1[C@H](C2)N(C)CC3 .
### Response inactive

### Prompt Now consider CCOP(=S)(OCC)Oc1ccc2c(C)c(Cl)c(=O)oc2c1 .
### Response inactive

### Prompt Now consider CC(=O)O[C@H]1C[C@@H](OC(C)=O)C(C)(C)C2C[C@@H](OC(C)=O)[C@]3(C)C(CC[C@@]4(C)[C@H](c5ccoc5)C(=O)[C@H]5O[C@]543)[C@]21C (some centres undefined) .
### Response inactive

### Prompt Now consider CN1CCc2cccc3c2C1Cc1ccc(O)c(O)c1-3 (centres undefined) .
### Response active

### Prompt Now consider COc1ccc(/C=C/c2cc(O)cc(O)c2)cc1 .
### Response inactive

### Prompt Now consider CO[C@@H]1[C@@H](O[C@@H]2O[C@H](C)[C@@H](O[C@H]3C[C@@](C)(O)[C@H](O)[C@H](C)O3)[C@H](N(C)C)[C@H]2O)[C@@H](CC=O)C[C@@H](C)[C@@H](O[C@H]2CC[C@H](N(C)C)[C@@H](C)O2)/C=C/C=C/C[C@H](C)OC(=O)C[C@H]1O .
### Response inactive

### Prompt Now consider O=C(O)CCCCC1SCC2NC(=O)NC21 (centres undefined) .
### Response inactive

### Prompt Now consider CC1(C)O[C@@H]2CC3C4CCC5=CC(=O)C=C[C@]5(C)C4[C@@H](O)C[C@]3(C)[C@]2(C(=O)CO)O1 (some centres undefined) .
### Response inactive

### Prompt Now consider CC[C@]1(O)CC2CN(CCc3c([nH]c4ccccc34)[C@@](C(=O)OC)(c3cc4c(cc3OC)N(C=O)[C@H]3[C@@](O)(C(=O)OC)[C@H](OC(C)=O)[C@]5(CC)C=CCN6CC[C@]43[C@@H]65)C2)C1 (some centres undefined) .
### Response inactive

### Prompt Now consider COP(=S)(OC)Oc1ccc(SC)c(C)c1 .
### Response inactive

### Prompt Now consider COS(C)(=O)=O .
### Response inactive

###

procedure summary: chemical genetic growth profiling, strain panel (AID 1159580);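 note: tested at 20 µM; growth read once vehicle control cultures reached saturation at 30 °C; 1 = growth at the plate median or of vehicle wells; lower values mean less growth of the strain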
run parameters: S. cerevisiae deletion strains, growth OD, locus YMR263W, strain SAP30, stronger effect = lower value
Screen size: about 5,500 compounds; about 2,000 (36%) were called active. Roughly 18% stayed inconclusive and do not appear here. Some of the results follow.
Please provide measured normalized growth for the entries that follow.
Respond numerically, and do not add a unit to the figure.

### Prompt Value lookup for normalized growth; key = CC1=C(/C=C/C(C)=C/C=C/C(C)=C\C(=O)O)C(C)(C)CCC1
### Response 0.956

### Prompt Now consider COc1ccc(/C=C/c2cc(O)cc(O)c2)cc1 .
### Response 0.883

### Prompt Now consider COc1ccc(-c2cc(C(F)F)nn2-c2ccc(S(N)(=O)=O)cc2)cc1F .
### Response 0.996

### Prompt Now consider O=c1cc(O)cc(/C=C/c2ccc(O)c(O)c2)o1 .
### Response 1

### Prompt Now consider COC(=O)c1ccc(C#Cc2ccccc2)o1 .
### Response 0.904

### Prompt Now consider CN(C)CCCO[C@H]1[C@@H](C(O)CO)OC2OC(C)(C)O[C@@H]21 (some centres not stated) .
### Response 0.942

### Prompt Now consider C=CC1=C(C)/C(=C/c2[nH]c(Cc3[nH]c(/C=C4\NC(=O)C(C)=C4C=C)c(C)c3CCC(=O)O)c(CCC(=O)O)c2C)NC1=O .
### Response 1

### Prompt Now consider COc1cc(O)cc(/C=C/c2ccccc2)c1 .
### Response 0.768

### Prompt Now consider O=C1NC(c2c(F)cccc2Cl)Nc2ccccc21 (configuration not stated) .
### Response 0.978

### Prompt Now consider CC1(C)CC2C1CCC1(C)OC1CCC2(C)O (configuration not stated) .
### Response 1.02

### Prompt Now consider CN=C1CN(O)C(c2ccccc2)=c2cc(Cl)ccc2=N1 .
### Response 0.957

### Prompt Now consider COC(=O)c1ccc(S(=O)(=O)NCc2ccccc2)n1C .
### Response 1.01

### Prompt Now consider CCOc1ccc2c(c1)C(C)=CC(C)(C)N2 .
### Response 0.981

### Prompt Now consider C[C@@H]1CC2C3CCC4=CC(=O)C=C[C@]4(C)[C@@]3(F)[C@@H](O)C[C@]2(C)[C@@]1(O)C(=O)COP(=O)(O)O (some centres not stated) .
### Response 1.01

### Prompt Now consider CC[C@@H](C(=O)O)[C@@H]1O[C@@H]([C@@H](C)[C@H](O)[C@H](C)C(=O)[C@H](CC)[C@H]2O[C@]3(C=C[C@@H](O)[C@]4(CC[C@@](C)(C5CC[C@](O)(CC)[C@H](C)O5)O4)O3)[C@H](C)C[C@@H]2C)[C@@H](C)C[C@H]1C (some centres not stated) .
### Response 0.763

### Prompt Now consider CCOC(=O)c1ccc(N)cc1 .
### Response 1

### Prompt Now consider COc1cc(C(=O)O)c(O)c2c1OCO2 .
### Response 1.02

### Prompt Now consider CC(N)=NCCC[C@H](N)C(=O)O .
### Response 1.02

### Prompt Now consider CO[C@@H]1[C@@H](O[C@@H]2O[C@H](C)[C@@H](O[C@H]3C[C@@](C)(O)[C@H](O)[C@H](C)O3)[C@H](N(C)C)[C@H]2O)[C@@H](CC=O)C[C@@H](C)[C@@H](O[C@H]2CC[C@H](N(C)C)[C@@H](C)O2)/C=C/C=C/C[C@H](C)OC(=O)C[C@H]1O .
### Response 1.01

### Prompt Now consider CC(C)(O)C#Cc1ccc(/C=N\O)cc1 .
### Response 0.962

### Prompt Now consider CC12CCCC(O)(C1)C1CC(C)(C)C1CC2 (configuration not stated) .
### Response 1.01

### Prompt Now consider CC1=C(/C=C/C(C)=C/C=C/C(C)=C/C(=O)Nc2ccc(O)cc2)C(C)(C)CCC1 .
### Response 0.994

###

Please provide measured normalized growth for the entries that follow.
procedure summary: chemical genetic growth profiling, strain panel (AID 1159580);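 note: tested at 20 µM; growth read once vehicle control cultures reached saturation at 30 °C; 1 = growth at the plate median or of vehicle wells; lower values mean less growth of the strain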
run parameters: S. cerevisiae deletion strains, growth OD, locus YLR342W, strain FKS1 (second series), stronger effect = lower value
Hit rate of the full screen: of about 5,500 compounds, about 2,000 (36%) were called active. Roughly 18% stayed inconclusive and do not appear here. The list shows a part of the results.
Respond numerically, and do not add a unit to the figure.

### Prompt Value lookup for normalized growth; key = COc1c(C2COc3cc4c(cc3C2=O)CC(O)C(C)(C)O4)ccc2c1CCC(C)(C)O2 (stereo unspecified)
### Response 1.04

### Prompt Now consider COc1cc2c(cc1O)CC1c3c(cc(O)c(OC)c3-2)CCN1C (stereo unspecified) .
### Response 0.998

### Prompt Now consider COc1cc2c3cc1Oc1cc(ccc1O)OC1c4c(cc(OC)c(O)c4Oc4ccc(cc4)CC3N(C)CC2)CCN1C (stereo unspecified) .
### Response 0.957

### Prompt Now consider COc1c(C(=O)O)ccc2c1CCC(C)(C)O2 .
### Response 1.07

### Prompt Now consider CC12CCC(CC1)C(C)(C)O2 .
### Response 1.04

### Prompt Now consider COc1ccc2c(c1O)-c1c(OC)c(OC)cc3c1[C@H](C2)N(C)CC3 .
### Response 1.06
